METHOD SUMMARY: qHTS assay to identify small molecule antagonists of the progesterone receptor (PR) signaling pathway - cell viability counter screen (AID 1346798); note: nearly all actives have a fitted effect of over 50% in size
CONDITION SET: PR-UAS-bla HEK293T viability, CellTiter-Glo luminescence, 16 h; series mostly up to 92.4 µM
Records with an inconclusive call do not appear. The source made the active and inactive calls. Calls come from the whole dose curve; as a rule, active = well fitted cell-killing curve with a large enough effect in the repeat runs; inconclusive = weak or mixed curves, or effect the other way; inactive = no such curve, though single readings can be large or run the other way.
Use one of these outcomes when replying: yes (1) for active, no (0) for inactive

Req: Given CC(C)CCCCCCOC(=O)c1ccc(C(=O)OCCCCCCC(C)C)c(C(=O)OCCCCCCC(C)C)c1 , state the outcome it received in this test.
Resp: no (0)

Req: Which outcome was assigned to O=C(O)C1CCC(C(=O)O)CC1 (centres undefined) in this test?
Resp: no (0)

Req: Lab log entry: CC[C@H](C)[C@@H](C(=O)O)n1sc2ccccc2c1=O — outcome as called in the assay?
Resp: yes (1)

Req: Could you kindly confirm the outcome this assay logged for CC(=O)SCc1ccco1 ?
Resp: no (0)

Req: Which outcome was assigned to CC(=O)/C(C)=C/C1C(C)=CCCC1(C)C (centres undefined) in this test?
Resp: no (0)

Req: Could you check what this test reported for CCCCCCCCCCCCCCC1CO1 (centres undefined) ?
Resp: no (0)

Req: Please indicate how the test categorized CC(C)c1ccc2c(C(C)C)cc(C(C)C)c(S(=O)(=O)O)c2c1 .
Resp: no (0)

Req: Please let me know the test result on file for CC(C(=O)O)c1ccc(C(=O)c2ccccc2)s1 (centres undefined) .
Resp: no (0)

Req: Recorded call for CCN(CC)C(C)CN1c2ccccc2Sc2ccccc21 (centres undefined) ?
Resp: no (0)

Req: What did this assay record as the result for CCCCCCc1ccc(N)cc1 ?
Resp: no (0)

Req: Each compound tested received a call. Report the one for CC(C)NCC(O)c1cc(O)cc(O)c1 (centres undefined) .
Resp: no (0)

Req: Test call, this compound: O=C(O)Cn1c(C(=O)Nc2nc(-c3ccccc3Cl)cs2)cc2ccccc21
Resp: no (0)

Req: Record lookup: outcome of this test for O=CNc1ccccc1 ?
Resp: no (0)

Req: Hey, what did the test say about CN1CCC[C@@H]1c1cccnc1 ?
Resp: no (0)

###

METHOD SUMMARY: qHTS assay to identify small molecule agonists of the NFkB signaling pathway - cell viability counter screen (AID 1159515); note: nearly all actives have a fitted effect of over 55% in size
CONDITION SET: NFkB-bla ME-180 viability, CellTiter-Glo luminescence, 5 h; series mostly up to 61 µM
Inconclusive results are not listed. Active and inactive are the calls of the source. Calls follow the shape of the full dose curve.
QUANTITY NAME: activity, negative = cytotoxic

Examples from the recorded data:
Req: If you can, please state the reported activity, negative = cytotoxic value of C=CC(=O)OCC(C)OCC(C)OCC(C)OC(=O)C=C (centres undefined) .
Resp: inactive

Req: Can you look up the measured activity, negative = cytotoxic of CCCCCCCCCC=O for me?
Resp: inactive

Req: Need activity, negative = cytotoxic, item Cn1c(NCCN(CCO)CCCc2ccc([N+](=O)[O-])cc2)cc(=O)n(C)c1=O
Resp: inactive

Req: Could you share which activity, negative = cytotoxic value was measured for Cc1ccc(C(=O)C(C)CN2CCCCC2)cc1 (centres undefined) ?
Resp: inactive

Req: Looking for the measured activity, negative = cytotoxic of Cc1ccc(C(N)=O)cc1N , can you help?
Resp: inactive

Others:
Req: For COC(=O)C(C)=O , what is its reported activity, negative = cytotoxic?
Resp: inactive

Req: # lookup: activity, negative = cytotoxic of CCOC(=O)CC(C)C
Resp: inactive

###

METHOD SUMMARY: Caspase-3/7 induction in CHO-K1 cells by small molecules, qHTS cell viability counter screen (AID 1346979); note: nearly all actives have a fitted effect of over 35% in size
CONDITION SET: CellTiter-Fluor fluorescence, 17 h; series mostly up to 92.4 µM
Results filed as inconclusive are left out. The source made the active and inactive calls. Calls come from the whole dose curve; as a rule, active = well fitted cell-killing curve with a large enough effect in the repeat runs; inconclusive = weak or mixed curves, or effect the other way; inactive = no such curve, though single readings can be large or run the other way.
Give one outcome, nothing more. List: active, inactive

Req: For Cn1c(=O)c2c(ncn2CC(O)CO)n(C)c1=O (configuration not stated) , what call appears in the results of this test?
Resp: inactive

Req: For S=C(S)NCCNC(=S)S , what call appears in the results of this test?
Resp: inactive

Req: What classification did COCCOCCOCCOCCOC end up with in this test?
Resp: inactive

Req: Could you please tell me the result logged for N=C(N=C(N)N)N1CCOCC1 in this assay?
Resp: inactive

Req: Which outcome was entered for the molecule N#Cc1cc2ccccc2c2ccccc12 in this test?
Resp: inactive

Req: Write down the call the test reported for this molecule. Item: C=CC(=O)OCC(C)OCC(C)OCC(C)OC(=O)C=C (configuration not stated)
Resp: active

Req: Kindly provide the recorded test outcome for the following molecule: CCCc1ccccc1
Resp: inactive

###

METHOD SUMMARY: qHTS assay to identify small molecule antagonists of the sonic hedgehog signaling (Shh) pathway - cell viability counter screen (AID 1259367); note: nearly all actives have a fitted effect of over 55% in size
CONDITION SET: NIH/3T3 Gli1-Luc viability, CellTiter-Fluor, 24 h; series mostly up to 92.4 µM
Results filed as inconclusive are left out. Activity calls are given as the source filed them. The call rests on the fitted dose curve; in most records, active means well fitted cell-killing curve with a large enough effect in the repeat runs; inconclusive means weak or mixed curves, or effect the other way; inactive means no such curve, though single readings can be large or run the other way.
Respond using exactly one of the listed classes: Y for active, N for inactive

Req: Record request — test call for O=C(O)[C@@H]1[C@H]2C[C@H]3c4[nH]c5ccccc5c4CCN3C[C@@H]2CC[C@@H]1O
Resp: N

Req: Kindly provide the recorded test outcome for the following compound: O=C(O)Cc1cc(I)c(Oc2ccc(O)c(I)c2)c(I)c1
Resp: N

Req: Record lookup: outcome of this test for Cc1cc(C)c(S(=O)(=O)O)cc1N=Nc1cc(S(=O)(=O)O)c2ccccc2c1O ?
Resp: Y

Req: Status in this test for Cc1occc1S ?
Resp: N

Req: Status in this test for Nc1nc(N)c(-c2ccccc2)s1 ?
Resp: N

Req: Given CCCC[C@H]1CN(CC2CCOCC2)C(=O)OC12CCN(C1(C)CCN(C(=O)c3c(C)ncnc3C)CC1)CC2 , state the outcome it received in this test.
Resp: N

Req: Name the outcome recorded for CCCCCCCCCCCCCCCC(=O)OC/C=C(C)/C=C/C=C(C)/C=C/C1=C(C)CCCC1(C)C in the assay.
Resp: N

Req: I'd appreciate the recorded outcome for O=C(O)C1CCC(C(=O)O)CC1 (configuration not stated) from this test.
Resp: N

Req: Any idea what this test logged for O=c1[nH]cnc2ccccc12 ?
Resp: N

Req: Hello, I am checking results. What call was entered for NC(=S)N/N=C/c1cccnc1 ?
Resp: N

Req: Hi, sorry to bother you, what did the test record for NCCCN(CCO)CCO ?
Resp: N

Req: For Cc1ccc(C(C)c2ccc(C)c(C)c2)cc1C , which call appears in the assay record?
Resp: N

###

METHOD SUMMARY: qHTS assay to identify small molecule antagonists of the thyroid receptor (TR) signaling pathway (AID 743065); note: nearly all actives have a fitted effect of over 55% in size
CONDITION SET: GH3.TRE-Luc, T3-stimulated luciferase inhibition, 23.5 h; series mostly up to 70.3 µM
Records with an inconclusive call do not appear. Active and inactive are the calls of the source. The call rests on the fitted dose curve; in most records, active means well fitted inhibition curve with a large enough effect in the repeat runs; inconclusive means weak or mixed curves; inactive means no such curve, though single readings can be large or run the other way.
Choose the fitting class; nothing outside True for active, False for inactive is accepted.

Req: Called result for Cc1ccccn1
Resp: False

Req: Given CC(C)NCC(O)COc1ccc(CC(N)=O)cc1 (stereo not drawn) , state the outcome it received in this test.
Resp: False

Req: Query: recorded result category for CNS(=O)(=O)Cc1ccc2[nH]cc(CCN(C)C)c2c1 in this test
Resp: False

Req: What outcome does the record of this test show for CC1=CC(=O)/C(=C(/C)O)C(=O)O1 ?
Resp: False

Req: Please let me know the test result on file for O=C(c1ccc(O)cc1)c1ccc(O)cc1 .
Resp: False

Req: # fetch the recorded call for SC1CCCC1 here
Resp: False

Req: Returns: the outcome recorded for S=C(S)NCCNC(=S)S in this assay.
Resp: False

Req: I'd appreciate the recorded outcome for CCOC(=S)SSC(=S)OCC from this test.
Resp: False

Req: Name the outcome recorded for CC1(C)CCC(C)(C)c2cc(NC(=O)c3ccc(C(=O)O)cc3)ccc21 in the assay.
Resp: True

Req: Could you check what this test reported for CCCCCCc1ccc(N)cc1 ?
Resp: True

Req: // param item: NC(N)=NN=C(/C=C/c1ccc([N+](=O)[O-])o1)/C=C/c1ccc([N+](=O)[O-])o1 ; yields the recorded call
Resp: True

Req: What did the test return for CC(C)(C)c1cc(CO)cc(C(C)(C)C)c1O ?
Resp: True

Req: Each compound tested received a call. Report the one for CN1CCC(=C2c3ccccc3CCc3sccc32)CC1 .
Resp: True

Req: Query: recorded result category for COc1ccccc1OC(=O)Oc1ccccc1OC in this test
Resp: False

Req: Which outcome was assigned to CN(C(=O)CCCOc1ccc2[nH]c(=O)ccc2c1)C1CCCCC1 in this test?
Resp: False

Req: Look up the recorded call for N#Cc1cc2ccccc2c2ccccc12 in this test.
Resp: False

Req: Answer briefly: the call reported for CC(O)C1CCCCC1 (stereo not drawn) in this assay.
Resp: False

Req: In this assay, the call recorded for O=C(C(=O)c1ccc(Br)cc1)c1ccc(Br)cc1 was what?
Resp: False

Req: # outcome recorded in this test, key = CCc1nn(C2CCCCC2)c2cc(C3(C#N)CCC(C(=O)O)CC3)ccc12 (stereo not drawn)
Resp: True

Req: Recorded call for CC[C@H](C)[C@H](N)C(=O)O ?
Resp: False

Req: Hi, do you know how Cc1nc2ccccc2n1Cc1ccc(Cl)cc1 came out in this test?
Resp: True

Req: Assay result, entry Cc1cc(NC(=O)C(=O)O)cc(C)c1Oc1ccc(O)c2c1CCC2 — outcome?
Resp: False

Req: Please indicate how the test categorized CC(=O)/C=C/C1C(C)=CCCC1(C)C (stereo not drawn) .
Resp: False

Req: Given CC/C(=C\C(=N/O)C(N)=O)C(C)[N+](=O)[O-] (stereo not drawn) , state the outcome it received in this test.
Resp: False

Req: What classification did CC(C)(C)c1cc(CCC(=O)OCC(COC(=O)CCc2cc(C(C)(C)C)c(O)c(C(C)(C)C)c2)(COC(=O)CCc2cc(C(C)(C)C)c(O)c(C(C)(C)C)c2)COC(=O)CCc2cc(C(C)(C)C)c(O)c(C(C)(C)C)c2)cc(C(C)(C)C)c1O end up with in this test?
Resp: False

Req: I would be grateful if you could indicate the recorded call for CCCCc1cc2ccccc2c(OCCN(C)C)n1 .
Resp: True

Req: Test call for this compound, please: Cc1ccccc1N=Nc1ccc(N=Nc2c(O)ccc3ccccc23)c(C)c1
Resp: False

Req: Returns: the outcome recorded for Oc1ccc(O)c2c(O)cccc12 in this assay.
Resp: False

Req: For O=C(Cl)c1c(Cl)cccc1Cl , which call appears in the assay record?
Resp: False

Req: What classification did O=C1c2cccc(O)c2C(=O)c2c(O)cc(CO)cc21 end up with in this test?
Resp: False

Req: GET /call?item= CC[C@]12CCCN3CCc4c(n(c5ccccc45)C(=O)C1)[C@@H]32 returns the recorded outcome of this test.
Resp: True

Req: Returns: the outcome recorded for CC(=O)OCCc1ccccc1 in this assay.
Resp: False

Req: Record lookup: outcome of this test for COC(=O)C(C)=O ?
Resp: False

Req: Called result for NCCCOCCOCCOCCCN
Resp: False

Req: Field: outcome | Entry: CCCc1ccccc1
Resp: False

Req: Record lookup: outcome of this test for NCCCN(CCO)CCO ?
Resp: False

Req: Called result for CCCCCCCCCCCCCCCBr
Resp: False

Req: Which result was noted for this compound in the test: c1ccc(CNCc2ccccc2)cc1
Resp: False

Req: What classification did O=C(O)/C=C/c1cnc[nH]1 end up with in this test?
Resp: False

Req: Hi, sorry to bother you, what did the test record for Cn1c(N)nc2nc[nH]c2c1=O ?
Resp: False

Req: Can you look up the reported call for CCCCCCCCCCCCCCCCCBr for me?
Resp: False

Req: Give the logged outcome of this assay for the following compound: C=Cc1c(C)c2cc3[nH]c(cc4nc(cc5nc(cc1[nH]2)C(C)=C5CCC(=O)O)C(CCC(=O)O)=C4C)c(C)c3C=C
Resp: False

Req: Hey, what did the test say about CC[C@H](C)[C@@H](C(=O)O)n1sc2ccccc2c1=O ?
Resp: False

Req: Name the outcome recorded for O=C(Nc1ccccc1)OCC(CN1CCCCC1)OC(=O)Nc1ccccc1 (stereo not drawn) in the assay.
Resp: True

Req: Test call for this compound, please: Cn1c(=O)c2c(ncn2CC(O)CO)n(C)c1=O (stereo not drawn)
Resp: False

Req: Write down the call the test reported for this compound. Item: CCCC(=O)OCC
Resp: False

Req: In this assay, the call recorded for CC(C(=O)O)c1ccc(C(=O)c2ccccc2)s1 (stereo not drawn) was what?
Resp: False

Req: I'd appreciate the recorded outcome for COc1ccc(C(C)=O)cc1 from this test.
Resp: False

Req: Record request — test call for COc1ccc(OC)c(OC)c1
Resp: False

Req: Short answer needed: outcome of this test for Oc1ccc(C(O)CNCCCCCCNCC(O)c2ccc(O)c(O)c2)cc1O (stereo not drawn) ?
Resp: True

Req: Which outcome was entered for the compound CC(C)c1ccc2c(C(C)C)cc(C(C)C)c(S(=O)(=O)O)c2c1 in this test?
Resp: True

Req: I'd appreciate the recorded outcome for Nc1nc(N)c2nc(CNc3ccc(C(=O)N[C@@H](CCC(=O)O)C(=O)O)cc3)cnc2n1 from this test.
Resp: True

Req: Record lookup: outcome of this test for CN1CCC(=C2c3ccccc3C=Cc3ccccc32)CC1 ?
Resp: True
